Target: selenophosphate synthetase (SPS) (Escherichia coli, UniProt P16456, E197D)
Construct: full-size selD from E. coli BL21-Gold (DE3), recombinant
Sequence (P16456 whole entry E197D): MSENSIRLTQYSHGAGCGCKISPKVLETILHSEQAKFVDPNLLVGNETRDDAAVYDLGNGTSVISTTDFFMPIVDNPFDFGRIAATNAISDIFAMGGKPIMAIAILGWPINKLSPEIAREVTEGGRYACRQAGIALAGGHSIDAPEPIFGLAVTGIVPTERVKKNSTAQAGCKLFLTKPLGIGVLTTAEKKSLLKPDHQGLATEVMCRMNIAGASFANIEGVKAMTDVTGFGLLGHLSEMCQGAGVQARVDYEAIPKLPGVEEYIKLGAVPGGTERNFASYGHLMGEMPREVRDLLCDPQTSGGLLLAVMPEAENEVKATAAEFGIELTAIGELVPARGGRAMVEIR
Test: competitive displacement of TNP-ATP (fluorescence)
Quantity Measured: EC50
Number first, unit second: that is the form wanted.

What measured EC50 goes with Nc1ncnc2c1ncn2[C@@H]1O[C@H](COP(=O)(O)OP(=O)(O)OP(=O)(O)O)[C@@H](O)[C@H]1O ? 450 µM

Source of measurements: paper PMC3956282
